# Tested on: HL-60
# run-description: cells
# condition-context: Homo sapiens
# Description: Cytotoxicity in human HL60 cells by MTT assay
Structures can show the parent of a compound that is named as a salt.
readout-kind: pIC50
Remember, pIC50 is on a log scale: it is -log10 of the molar concentration.

* CCN(CC)CCOc1ccc(C(O)(Cc2ccc(Cl)cc2)c2ccc(C)cc2)cc1 (stereo not given) | 5.00

## Task Given the entry CC(=O)O[C@H]1CC[C@@]2(C)[C@@H](CC=C3[C@@H]2CC[C@]2(C)[C@@H]([C@H](C)C(=O)N(C)CC(C)C)CC[C@@H]32)C1 , report its measured pIC50.
## Result 4.33

## Task Would you mind doing CCCC(=O)N(C)C[C@@H](C)[C@H]1CC[C@H]2C3=CC[C@H]4C[C@@H](OC(C)=O)CC[C@]4(C)[C@H]3CC[C@]12C as well?
## Result 4.89

## Task Would you mind doing CN1CCN(CCCN2c3ccccc3Sc3ccc(C(F)(F)F)cc32)CC1 [TRIFLUOPERAZINE HYDROCHLORIDE] as well?
## Result 4.80

## Task Would you mind doing C[C@H](/C=C/c1cc[n+](C)cc1)[C@H]1CC[C@H]2C3=CC[C@H]4C[C@@H](O)CC[C@]4(C)[C@H]3CC[C@]12C.[I-] as well?
## Result 5.52

## Task Would you mind doing CCONC(=O)[C@@H](C)[C@H]1CC[C@H]2C3=CC[C@H]4C[C@@H](OC(C)=O)CC[C@]4(C)[C@H]3CC[C@]12C as well?
## Result 4.74

###

# Tested on: HL-60
# run-description: Cytotoxicity in human HL60 cells at 50 uM by MTT assay
# Format: cell-based
# condition-context: hl-60, 50 µM
readout-kind: Activity

- C/C=C/C(=O)OC[C@@H](C)[C@H]1CC[C@H]2C3=CC[C@H]4C[C@@H](OC(C)=O)CC[C@]4(C)[C@H]3CC[C@]12C: Toxic
- CCCC(=O)N(C)C[C@@H](C)[C@H]1CC[C@H]2C3=CC[C@H]4C[C@@H](OC(C)=O)CC[C@]4(C)[C@H]3CC[C@]12C: Toxic
- CC(=O)O[C@H]1CC[C@@]2(C)[C@@H](CC=C3[C@@H]2CC[C@]2(C)[C@@H]([C@H](C)COC(=O)CN(C)C)CC[C@@H]32)C1: Toxic

Data origin: ChEMBL document CHEMBL4130461
